Entry source: patent US11465987B2

# System: MDA-MB-435/LCCMDR1 multidrug-resistant melanoma cells
# Assay info: Cytotoxicity (SRB) assay, MDA-MB-435/LCCMDR1
# Assay type: cell-based
# Run conditions: Homo sapiens; Table 14B; MDR1 overexpressed; read-out: IC50 ± SEM, MDA-MB-435/LCC6MDR1
Readout label: pIC50
Bear in mind: pIC50 is minus log10 of a mol/L concentration; give just that figure.

COc1ccc(S(=O)(=O)Nc2cccnc2Nc2ccc(O)cc2)cc1 [ABT-751, reference compound] yielded pIC50 of 6.24

====

# Tested on: PPC-1 human prostate cancer cell line
# Assay info: Cytotoxicity (SRB) assay, PPC-1
# Assay type: cell-based
# Run conditions: Homo sapiens, PPC-1, read-out: inhibitory effects, PPC1
Readout label: pIC50
Friendly reminder that pIC50 comes from taking -log10 of the concentration in mol/L.

CCCn1cc(-c2ccccc2)nc1C(=O)c1cc(OC)c(OC)c(OC)c1 [70ab] tested on PPC-1 human prostate cancer cell line gave pIC50: 8.01

====

# Tested on: PC-3 human prostate cancer cell line
# Assay info: cells
# Run conditions: Homo sapiens, read-out: IC50 PC-3, SRB assay, prostate cancer PC-3
Readout label: IC50 (µM)
Numeric only. Scale: µM

# value of IC50, PC-3 human prostate cancer cell line, item COc1cc(C(=C(C)C)c2csc(-c3ccccc3)n2)cc(OC)c1OC = 2.47

PC-3 human prostate cancer cell line IC50 of COc1cc(C(=O)c2csc(-c3ccc(O)cc3)n2)cc(OC)c1OC is 0.087

====

# Assay info: in vivo
# Run conditions: male, ICR, mouse, plasma, iv, 15 mg/kg
Readout label: Vd

Vd in this record for COc1cc(C(=O)c2csc(-c3ccc(O)cc3)n2)cc(OC)c1OC : 16.5 L/kg

====

# System: B16-F1 mouse melanoma cell line
# Assay info: Cytotoxicity (SRB) assay, B16-F1
# Assay type: cell-based
# Run conditions: Mus musculus, B16-F1, Table 12; read-out: IC50 ± SEM, B16-F1 (converted)
# if measured IC50 < 300 nM: label 1  # else: label 0

Record excerpt, results attached:
INSERT INTO assay_data (molecule, assigned_label) VALUES
  ('COc1cc(C(=O)c2c[nH]c(-c3ccc(F)cc3)n2)cc(OC)c1OC [12ba]', 'label 0'),
  ('COc1cc(C(=O)c2c[nH]c(-c3cc(OC)c(OC)c(OC)c3)n2)cc(OC)c1OC [12ea]', 'label 0'),
  ('COc1cc(C(=O)c2c[nH]c(-c3ccc(O)cc3)n2)cc(OC)c1OC [12ka]', 'label 0'),
  ('COc1ccc(-c2nc(C(=O)c3ccc(F)cc3)c[nH]2)cc1OC [12hb]', 'label 0'),
  ('O=C(c1ccc(F)cc1)c1c[nH]c(-c2ccc(OCc3ccccc3)cc2)n1 [12jb]', 'label 1'),
  ('COc1cc(C(=O)c2c[nH]c(-c3ccc(Cl)cc3)n2)cc(OC)c1OC [12fa]', 'label 1'),
  ('O=C(c1cc(O)c(O)c(O)c1)c1c[nH]c(-c2ccc(Cl)cc2)n1 [13fa]', 'label 0'),
  ('COc1cc(C(=O)c2c[nH]c(-c3ccc(OCc4ccccc4)cc3)n2)cc(OC)c1OC [12ja]', 'label 0');

Exam item: I'd appreciate it if you could check whether COc1cc(C(=O)c2c[nH]c(-c3ccc(N(C)C)cc3)n2)cc(OC)c1OC [12ga] has IC50 smaller than 300 nM.
Marked response: label 0

Exam item: In plain terms, does Cc1ccc(-c2nc(C(=O)c3ccc(F)cc3)c[nH]2)cc1 [12db] come in under 300 nM for IC50?
Marked response: label 1

Exam item: For COc1ccc(-c2nc(C(=O)c3cc(OC)c(OC)c(OC)c3)c[nH]2)cc1 [12ca] , is the recorded IC50 below the cut-off of 300 nM?
Marked response: label 1

====

# Tested on: DU 145 human prostate cancer cell line
# Assay info: Cytotoxicity (SRB) assay, DU 145
# Format: cell-based
# Run conditions: Homo sapiens, DU-145, SRB assay, prostate cancer DU 145; read-out: IC50 DU 145
Counter-ions that a name gives are not always drawn.
Could you please mark satisfied for values of IC50 below 40 nM and not satisfied for values at or above it?

// below: answered compounds
INSERT INTO results (compound, measurement_target, assigned_label) VALUES
  ('COc1cc(C(=O)c2csc(-c3ccc(CN)cc3)n2)cc(OC)c1OC.Cl [2r, hydrochloride]', 'DU 145 human prostate cancer cell line', 'satisfied'),
  ('COc1cc(C(=O)c2csc(-c3ccc(N(C)C)cc3)n2)cc(OC)c1OC [2o]', 'DU 145 human prostate cancer cell line', 'not satisfied');

Exam item: Answer whether the compound CC[C@]1(O)C[C@@H]2CN(CCc3c([nH]c4ccccc34)[C@@](C(=O)OC)(c3cc4c(cc3OC)N(C)[C@H]3[C@@](O)(C(=O)OC)[C@H](OC(C)=O)[C@]5(CC)C=CCN6CC[C@]43[C@@H]65)C2)C1 [vinblastine, Vinblastine, reference compound] has IC50 strictly less than 40 nM
Marked response: satisfied

Exam item: Regarding COc1cc(C(=O)c2cccc(-c3ccccc3)n2)cc(OC)c1OC [1c] , kindly confirm whether its IC50 is beneath 40 nM.
Marked response: satisfied

Exam item: Given the entry COc1cc(C(=O)c2csc(Nc3ccc(C)cc3)n2)cc(OC)c1OC [5Hb, hydrochloride salt] , would its reported IC50 be below 40 nM?
Marked response: satisfied

====

# Tested on: A375MA2 melanoma cell line
# Assay info: Cytotoxicity assay, A375MA2
# Format: cell-based
# Run conditions: Table 14B, n = 3; read-out: IC50 ± SEM, A375MA2
The entries below come with measured pIC50 values attached.
Entry type: numeric. Quantity: pIC50, the -log10 of concentration in molar units.

// pIC50 lookup, compound = CC[C@]1(O)C[C@@H]2CN(CCc3c([nH]c4ccccc34)[C@@](C(=O)OC)(c3cc4c(cc3OC)N(C)[C@H]3[C@@](O)(C(=O)OC)[C@H](OC(C)=O)[C@]5(CC)C=CCN6CC[C@]43[C@@H]65)C2)C1 [vinblastine, Vinblastine, reference compound] , result: 9.00

Form field pIC50, entry O=C(c1ccc(F)cc1)c1c[nH]c(-c2ccc(Cl)cc2)n1 [12fb] : 7.26

Lookup result for COc1ccc(-c2nc(C(=O)c3ccc(F)cc3)c[nH]2)cc1 [12cb] ; measured pIC50: 7.36

====

# Tested on: MDA-MB-435/LCCMDR1 multidrug-resistant melanoma cells
# Assay info: Cytotoxicity (SRB) assay, MDA-MB-435/LCCMDR1
# Type: cell-based
# Run conditions: Homo sapiens; Table 14C, melanoma cells; read-out: IC50 ± SEM MDA-MB-435/LCC-6MDR1
Readout label: IC50

Query COc1cc(Cc2nc(-c3ccccc3)c(-c3ccccc3)[nH]2)cc(OC)c1OC yields IC50 of > 50 µM

====

# Tested on: PC-3 human prostate cancer cell line
# Assay info: cells
# Run conditions: Homo sapiens, read-out: IC50 PC-3, SRB assay, prostate cancer PC-3
# IC50 per entry
Record the value in µM, omitting the unit from your answer.

Please review the following examples before continuing.
INSERT INTO assay_data (compound, readout_label, recorded_result) VALUES
  ('COc1cc(C(=O)c2csc(Nc3ccc(Cl)cc3)n2)cc(OC)c1OC [5d]', 'IC50', 0.033),
  ('COc1cc(C(=O)c2csc(-c3ccccc3)n2)cc(OC)c1OC [1h]', 'IC50', 0.0291);

Entry COc1cc(C(=O)c2csc(Nc3ccccc3)n2)cc(OC)c1OC [5a] — recorded IC50 = 0.057

====

# Tested on: PC-3 human prostate cancer cell line
# Assay info: cells
# Run conditions: Homo sapiens, read-out: IC50 PC-3
Recorded measurements of IC50, one per entry

Sample records with IC50:
INSERT INTO measurements (molecule, recorded_result) VALUES
  ('COc1cc(/C(=C\C#N)c2csc(-c3ccccc3)n2)cc(OC)c1OC [2c-cis]', '~10 µM'),
  ('COc1cc(/C=C\c2csc(-c3ccccc3)n2)cc(OC)c1OC', '> 10 µM'),
  ('COc1cc(/C=C/c2csc(-c3ccccc3)n2)cc(OC)c1OC', '> 10 µM');

Next item in the queue.
For reference, reported IC50 for CNCc1ccc(-c2nc(C(=O)c3cc(OC)c(OC)c(OC)c3)cs2)cc1.Cl [2s, hydrochloride] stands at > 10 µM

====

# Tested on: PC-3 human prostate cancer cell line
# Assay info: cells
# Run conditions: Homo sapiens, read-out: IC50 PC-3, SRB assay, prostate cancer PC-3
# Description: Cells were stained with SRB solution.
pIC50: −log10 of the molar value.
Readout label: pIC50

INSERT INTO results (compound, recorded_result) VALUES
  ('c1ccc(Nc2nccn2C(c2ccccc2)(c2ccccc2)c2ccccc2)cc1', '< 6.00'),
  ('COc1cc(C(=O)c2c[nH]c(Nc3ccccc3)n2)cc(OC)c1OC', '< 6.00');

Then there is this compound:
Record summary for COc1cc(/C(=N\O)c2csc(-c3ccccc3)n2)cc(OC)c1OC [2e-trans] : reported pIC50 = < 5.00
